# Test system: IGROV1 ovarian
# ASSAY: NCI tumour cell line growth inhibition, 48 h; in the data active = GI50 below about 0.43 µM; inactive = the rest
Please state which outcome applies, choosing from true (1) (active), false (0) (inactive)

Check out these entries, answers already filled in.
>  <MOLECULE>
O=C1CCC(N2Cc3cc(CC(=O)Nc4ccc(N5CCCCC5)cc4)ccc3C2=O)C(=O)N1 (centres undefined)

>  <GROUP LABEL>
true (1)

$$$$
>  <MOLECULE>
Cn1cc(-c2cc3nc(-c4c[nH]c5ccccc45)cc(N)n3n2)c2cc(Cl)ccc21

>  <GROUP LABEL>
false (0)

$$$$
>  <MOLECULE>
Clc1ccc(-c2ccc(OCCCN3CCN(c4ccncc4)CC3)cc2)cc1

>  <GROUP LABEL>
false (0)

$$$$

For COc1ccc(Nc2nc(N)n(Cc3cccc(Br)c3)n2)cc1 , what call appears in the results of this test? false (0)

###

# Test system: MDA-MB-468 breast
# ASSAY: NCI tumour cell line growth inhibition, 48 h
TGI vs 6 µM: at or above is 1, below is 0.

>  <COMPOUND>
C[C@]12CC[C@@H]3c4ccc(O)c([N+](=O)[O-])c4CC[C@H]3[C@@H]1CC[C@@H]2NS(=O)(=O)c1ccc(C(F)(F)F)cc1

>  <SUBJECT OF TEST>
MDA-MB-468 breast

>  <GROUP LABEL>
1

$$$$
>  <COMPOUND>
C[n+]1cc2c3c(ccc2c2ccc4cc5c(cc4c21)OCO5)OCO3

>  <SUBJECT OF TEST>
MDA-MB-468 breast

>  <GROUP LABEL>
0

$$$$
>  <COMPOUND>
Cn1cc(-c2cc(N)n3nc(-c4c[nH]c5ccccc45)cc3n2)c2ccccc21

>  <SUBJECT OF TEST>
MDA-MB-468 breast

>  <GROUP LABEL>
0

$$$$
>  <COMPOUND>
CCN(c1ccc(CO)c(Cl)c1)C(C)c1ccc(F)cc1 (stereo not drawn)

>  <SUBJECT OF TEST>
MDA-MB-468 breast

>  <GROUP LABEL>
0

$$$$
>  <COMPOUND>
COc1ccc(C(=O)N2c3ccccc3Sc3ccccc32)c(F)c1

>  <SUBJECT OF TEST>
MDA-MB-468 breast

>  <GROUP LABEL>
1

$$$$

Hello, I need to know if CC[C@H](C)[C@H](NC(=O)c1cnccn1)C(=O)N(C)[C@H](C[C@@H](OC(C)=O)c1nc(C(=O)N[C@@H](Cc2ccccc2)C[C@H](C)C(=O)OC)cs1)C(C)C has measured TGI not below 6 µM. Thanks! 1

Hello, I need to know if CCNCCCn1c2c(c3cc(OC)c(OC)cc3c1=O)C(=O)c1cc(OC)cnc1-2 has measured TGI not below 6 µM. Thanks! 0

Hello, I need to know if Cc1cccc(NC(=O)c2sc3nc4c(cc3c2N)CCCC4)c1C has measured TGI not below 6 µM. Thanks! 1

###

# Test system: RPMI-8226 leukemia
# ASSAY: NCI tumour cell line growth inhibition, 48 h; in the data active = GI50 below about 0.43 µM; inactive = the rest
Please state which outcome applies, choosing from active, inactive

Check out these entries, answers already filled in.
>  <COMPOUND>
COc1ccc(Nc2nc(N)n(Cc3cccc(Br)c3)n2)cc1

>  <GROUP LABEL>
inactive

$$$$
>  <COMPOUND>
O=C1CCC(N2Cc3cc(CC(=O)Nc4ccc(N5CCCCC5)cc4)ccc3C2=O)C(=O)N1 (stereo not given)

>  <GROUP LABEL>
inactive

$$$$
>  <COMPOUND>
N#Cc1c(NC(=O)c2ccc(C(F)(F)F)cc2)sc2c1CCC(=O)C2

>  <GROUP LABEL>
active

$$$$
>  <COMPOUND>
Cn1cc(-c2cc3nc(-c4c[nH]c5ccccc45)cc(N)n3n2)c2cc(Cl)ccc21

>  <GROUP LABEL>
inactive

$$$$

For Cn1cc(-c2cc(N)n3nc(-c4c[nH]c5ccccc45)cc3n2)c2ccccc21 , what call appears in the results of this test? inactive

###

# System: MOLT-4 leukemia
# ASSAY: NCI tumour cell line growth inhibition, 48 h; in the data active = GI50 below about 0.43 µM; inactive = the rest
Please state which outcome applies, choosing from active, inactive

Check out these entries, answers already filled in.
>  <COMPOUND>
N#Cc1c(NC(=O)c2ccc(C(F)(F)F)cc2)sc2c1CCC(=O)C2

>  <GROUP LABEL>
active

$$$$
>  <COMPOUND>
COc1ccc(Nc2nc(N)n(Cc3cccc(Br)c3)n2)cc1

>  <GROUP LABEL>
inactive

$$$$
>  <COMPOUND>
O=C1CCC(N2Cc3cc(CC(=O)Nc4ccc(N5CCCCC5)cc4)ccc3C2=O)C(=O)N1 (centres undefined)

>  <GROUP LABEL>
active

$$$$

For Cn1cc(-c2cc(N)n3nc(-c4c[nH]c5ccccc45)cc3n2)c2ccccc21 , what call appears in the results of this test? inactive

###

In this section, each of the compounds is paired with its reported TGI.
# System: UO-31 renal
# ASSAY: NCI tumour cell line growth inhibition, 48 h

>  <COMPOUND>
Clc1ccc(-c2ccc(OCCCN3CCN(c4ccncc4)CC3)cc2)cc1

>  <TGI>
29.6 µM

$$$$
>  <COMPOUND>
O=C1CCC(N2Cc3cc(CC(=O)Nc4ccc(N5CCCCC5)cc4)ccc3C2=O)C(=O)N1 (centres undefined)

>  <TGI>
> 100 µM

$$$$
>  <COMPOUND>
COc1ccc(C(SCCNCc2cc(N(C)C)ccn2)(c2ccccc2)c2ccccc2)cc1

>  <TGI>
17.5 µM

$$$$

// moving on: another record for TGI
COc1ccc(Nc2nc(N)n(Cc3cccc(Br)c3)n2)cc1 has a reported TGI of > 100 µM

###

In this section, each of the molecules is paired with its reported log10 of TGI.
# System: MDA-MB-468 breast
# ASSAY: NCI tumour cell line growth inhibition, 48 h
For clarity, the numbers are log10 values of TGI expressed in µM.

Completed entries (count: 4):
>  <MOLECULE>
Cc1ccc(C(=O)/C(=C/c2ccc([N+](=O)[O-])cc2)S(=O)Cc2ccccc2)cc1 (stereo not given)

>  <SUBJECT OF TEST>
MDA-MB-468 breast

>  <log10 of TGI>
0.61

$$$$
>  <MOLECULE>
N/C(=N\OC(=O)c1ccccc1)C(C(=O)NOC(=O)c1ccccc1)C1CCCCC1 (stereo not given)

>  <SUBJECT OF TEST>
MDA-MB-468 breast

>  <log10 of TGI>
1.47

$$$$
>  <MOLECULE>
Cc1ccc(C(=O)Nc2ccc(CN3CCN(C)CC3)c(C(F)(F)F)c2)cc1C#Cc1cnc(N)c2ccc(F)cc12

>  <SUBJECT OF TEST>
MDA-MB-468 breast

>  <log10 of TGI>
0.08

$$$$
>  <MOLECULE>
C#Cc1nc(/C=C/C(=O)NO)cs1

>  <SUBJECT OF TEST>
MDA-MB-468 breast

>  <log10 of TGI>
0.62

$$$$

// moving on: another record for log10 of TGI
CC1(C)N=C(N)N=C(N)N1c1ccc(CCc2ccccc2)c(Cl)c1 has a reported log10 of TGI of 0.13

###

# Test system: MDA-MB-468 breast
# ASSAY: NCI tumour cell line growth inhibition, 48 h; in the data active = GI50 below about 0.43 µM; inactive = the rest
Please state which outcome applies, choosing from active, inactive

Check out these entries, answers already filled in.
>  <MOLECULE>
NS(=O)(=O)c1ccc(N2Cc3cc(Cl)ccc3OC3=C2C(=O)N(CC2CCCCC2)C3=O)cc1

>  <GROUP LABEL>
inactive

$$$$
>  <MOLECULE>
Cc1ccc(C(=O)/C(=C/c2ccc([N+](=O)[O-])cc2)S(=O)Cc2ccccc2)cc1 (stereo not given)

>  <GROUP LABEL>
inactive

$$$$
>  <MOLECULE>
COc1cc(Nc2ccnc(N3CCN(c4ccnc5cc(Cl)ccc45)CC3)n2)cc(OC)c1

>  <GROUP LABEL>
inactive

$$$$
>  <MOLECULE>
Clc1ccc(-c2ccc(OCCCN3CCN(c4ccncc4)CC3)cc2)cc1

>  <GROUP LABEL>
inactive

$$$$
>  <MOLECULE>
COc1cc(-c2csc(NC(=O)c3cc(C(F)(F)F)cc(C(F)(F)F)c3)n2)cc(OC)c1OC

>  <GROUP LABEL>
inactive

$$$$
>  <MOLECULE>
CS(=O)(=O)c1ccc(Cl)c([N+](=O)[O-])c1

>  <GROUP LABEL>
inactive

$$$$

For Cn1cc(C2=C(c3cn(C)c4ccc(N)cc34)C(=O)NC2=O)c2ccccc21 , what call appears in the results of this test? inactive

For CNC(=O)Nc1ccc(-c2nc(N3CCOCC3)nc3c2cnn3C2CCOCC2)cc1 , what call appears in the results of this test? active

For Cc1cccc(NC(=O)c2sc3nc4c(cc3c2N)CCCC4)c1C , what call appears in the results of this test? active

For N/C(=N\OC(=O)c1ccccc1)C(C(=O)NOC(=O)c1ccccc1)C1CCCCC1 (stereo not given) , what call appears in the results of this test? inactive
